- test.method.notes: Apparent permeability from basolateral to apical side of human Caco-2 cells
- Format: ADME, cell-based
metric.name: Papp B→A (×10⁻⁶ cm/s)
Report the figure in ×10⁻⁶ cm/s without appending any unit label.

response.value for `CC(C)C[C@@H](CC(=O)O)NC(=O)[C@@H](C)CN` (field: Papp B→A) = 0.084

The compound `CCC[C@@H](C[C@H](C)NC(=O)[C@H](C)C[C@@H](NC(=O)[C@@H](Cc1ccccc1)C[C@@H](C)N)C(C)C)C(=O)O` showed Papp B→A equal to 0.097

Measured Papp B→A of `CC(C)C[C@H](CCNC(=O)[C@H](C)CCNC(=O)[C@@H](CCN)C(C)C)C(=O)O` : 0.094

// sample `CC(C)[C@H](N)CC(=S)N[C@@H](C)CC(=O)O` , its Papp B→A was 0.124

# Papp B→A of `C[C@H](N)CC(=O)N[C@@H](CCCCN)CC(=O)O` = 0.078

Measured Papp B→A, `C[C@H](N)CC(=O)N[C@@H](CCCCN)CC(=O)N[C@H](CC(=O)O)Cc1ccccc1` : 0.061
